Assay: Inhibition of bacterial N-terminal His6-tagged VIM2 (27 to 266 residues) expressed in Escherichia coli BL21 DE3 pLysS cells using FC-5 as substrate pretreated for 10 mins followed by substrate addition measured every 60 secs by fluorescence assay
Set-up: species or system Bacteria
Hi there, I'd appreciate the recorded pIC50 for every entry that follows.
Answers are plain numbers.

| Compound | Measured result |
| --- | --- |
| O=C(/C=C/c1ccc(O)c(O)c1)O[C@H](Cc1ccc(O)c(O)c1)C(=O)O [ROSMARINIC ACID] | 4.38 |

Read the next record carefully.
Give the value of pIC50 reported for the following: O=C(/C=C/c1ccc(O)c(O)c1/C=C/c1ccc(O)c(O)c1)O[C@H](Cc1ccc(O)c(O)c1)C(=O)O [SALVIANOLIC ACID A] 4.57

====

Test: Inhibition of bacterial N-terminal His6-tagged NDM1 expressed in Escherichia coli BL21 DE3 pLysS cells using FC-5 as substrate pretreated for 10 mins followed by substrate addition measured every 60 secs by fluorescence assay
Design: species or system Bacteria
Property: pIC50

Below, each entry is followed by its recorded pIC50 result.
| Structure smiles string | pIC50 |
| --- | --- |
| O=C(O)[C@H](O)Cc1ccc(O)c(O)c1 | < 3.2 |
| O=C(/C=C/c1ccc(O)c(O)c1/C=C/c1ccc(O)c(O)c1)O[C@H](Cc1ccc(O)c(O)c1)C(=O)O | 3.75 to 3.79 |
| O=C(/C=C/c1ccc(O)c(O)c1)O[C@H](Cc1ccc(O)c(O)c1)C(=O)O | < 3.2 |

Moving on to another compound below.
Consider the compound "O=C(O)/C=C/c1ccc(O)c(O)c1" . State its measured pIC50. < 3.2
